Target: GPR139 (Homo sapiens)
Sequence (Q6DWJ6 whole entry): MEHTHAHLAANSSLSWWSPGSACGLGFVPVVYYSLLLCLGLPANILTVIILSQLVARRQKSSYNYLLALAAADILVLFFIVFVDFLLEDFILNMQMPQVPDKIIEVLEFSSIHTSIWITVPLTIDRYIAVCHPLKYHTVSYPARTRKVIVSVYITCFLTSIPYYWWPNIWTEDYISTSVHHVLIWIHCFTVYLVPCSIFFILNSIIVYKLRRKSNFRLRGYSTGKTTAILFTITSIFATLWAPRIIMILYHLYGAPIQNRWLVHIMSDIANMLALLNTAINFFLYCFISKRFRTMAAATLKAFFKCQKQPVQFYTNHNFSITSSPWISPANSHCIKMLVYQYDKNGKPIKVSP
Experiment: GPR139 Agonist titration / agonist counterscreen assay (calcium detection, HEK-GPR139 cells)
Assay type: cell-based
Design: expressed in transfected cells; host or cells: HEK Aequorin cells, Maxcyte transient transfection
Details: GPR139 Agonist Activity; based on logP
assay.endpoint: Lipophilic Efficiency (logP)

Guide cases for Lipophilic Efficiency (logP), answers given:
[[record]]
molecule = "O=C(CCC(=O)c1ccco1)NNC(=O)CN1CCCc2ccccc21"
numeric_value = 5.32

[[record]]
molecule = "CC(CCc1ccccc1)NC(=O)c1ccc2c(c1)C(Cc1ccccc1)C(=O)C[S+]2[O-] (stereo not drawn)"
numeric_value = 3.61

[[record]]
molecule = "COc1ccc(CCNC(=O)CC(=O)NCCc2ccc(OC)cc2)cc1"
numeric_value = 4.65

[[record]]
molecule = "COCC(=O)Oc1c(Sc2c(F)c(F)c(F)c(F)c2F)c(C)nn1C(C)(C)C"
numeric_value = 3.16

[[record]]
molecule = "COc1ccccc1-c1nnc(NC(=O)Cc2ccc(C)cc2C)o1"
numeric_value = 3.69


(A) CC(=O)c1cccc(C(C)(C)CC(=O)CNC(=O)c2ccccc2)c1
(B) COc1ccc(CCNC(=O)c2ccnc(N3CCN(Cc4ccc5c(c4)OCO5)CC3)c2)cc1
Q: Consider entries A and B . Which has the numerically lower Lipophilic Efficiency (logP)? # reply format: chosen label
A: B

Values were extracted from patent US20250099420A1.
